Provide the recorded melting point for the entries that follow.

# melting point (molecule: Cn1ncc2c1SSSSS2 ) is 57 to 60 °C

# melting point (molecule: Nc1cc2c(cc1F)OC(=O)CN2 ) is > 250 °C

# melting point (molecule: NNC(=O)c1ccccc1Nc1cccc(C(F)(F)F)c1 ) is 134 to 135 °C

# melting point (molecule: Cc1ccc(C23CNCC2CC3=O)cc1 (stereo unspecified) ) is 130 to 133 °C

# melting point (molecule: CCCCCCCCCCCCCCCc1cc2cc(C(=O)OCC)ccc2[nH]1 ) is 89 to 91 °C

# melting point (molecule: COc1ccc(N2CCN(c3c(C)c(C)c4c(c3C)C(=O)C(C)(C)O4)CC2)cc1OC ) is 153 to 154 °C

# melting point (molecule: O=C1C(=O)c2ccc(Br)cc2C2=C1SCC1(CCN(C(=O)c3cccc(Cl)c3)CC1)O2 ) is 135 to 140 °C

# melting point (molecule: C=C(CN(Cc1ccccc1)Cc1ccccc1)C(=O)OC(C)(C)C ) is 62 to 63 °C

# melting point (molecule: Cc1[nH]c(-c2cccc(C(F)(F)F)c2)nc1C=O ) is 180 °C

# melting point (molecule: C[N+]1([O-])C(=O)C(F)N=C(c2ccccc2)c2cc(Cl)ccc21 (stereo unspecified) ) is 167 to 169 °C

# melting point (molecule: CCCCc1ccc(C(=O)CCCn2ccnc2)cc1 ) is 125 to 128 °C

# melting point (molecule: COc1cc(OC)nc(NC(=O)NS(=O)(=O)c2nn(C)c3cccc(F)c23)n1 ) is 205 to 209 °C

# melting point (molecule: Cc1cccc2sc(NN)nc12 ) is 161 to 166 °C

# melting point (molecule: CC(=O)N[C@@H]1c2ccccc2C[C@@H]1C (relative stereo) ) is 146 to 147 °C

# melting point (molecule: O=C(O)c1cc2ccccc2cc1NC(=O)C(CS)Cc1ccccc1 (stereo unspecified) ) is 180 to 182 °C

# melting point (molecule: O=C(C=CCc1c[nH]c2ccccc12)NC(C(=O)OCc1ccccc1)C(=O)OCc1ccccc1 ) is 162 to 163 °C

# melting point (molecule: CO[C@@H]1C=C2C=C3C(=C(C)C(=O)N3C)C[C@]2(C)[C@@H](C)[C@H]1OC(=O)c1cccs1 ) is 148 to 153 °C

# melting point (molecule: Cn1c(CNC2CCS(=O)(=O)CC2)cc2cc(NC(=O)c3ccc(OCC4CC4)cc3)ccc21 ) is 200 to 201 °C

# melting point (molecule: C=CSc1nc(-c2ccc(OC)cc2)c(-c2ccc(OC)cc2)[nH]1 ) is 114 to 115 °C

# melting point (molecule: N#Cc1c(-c2ccc(Cl)c(Cl)c2)cc(C2CC2)[nH]c1=O ) is 290 to 295 °C

# melting point (molecule: NC(=O)c1ncn2c1[C@@H]1CCN1C(=O)c1cc(Cl)ccc1-2 ) is 251 to 253 °C

* * *

Provide the recorded melting point for the entries that follow.
Record the value in °C, omitting the unit from your answer.

# melting point (compound: Cc1c(C)c2c(c(Cl)c1C=O)CC(C)(C)C2 ) is 108

# melting point (compound: c1cn(-c2ccc3nc(-c4ccc5c(c4)OCCO5)ncc3c2)cn1 ) is 132

# melting point (compound: O=C(Nc1cccc2c1C(=O)N(CCN1CCN(c3ccncc3)CC1)C2=O)c1ccc(Cl)s1 ) is 168

# melting point (compound: COc1cc(C(=O)c2ccc(C(F)(F)F)cc2)cc(C#N)c1OC ) is 130

* * *

Provide the recorded melting point for the entries that follow.

# melting point (compound: O=C1C(=O)N(CCCCN2CCN(C(c3ccccc3)c3ccccc3)CC2)c2ccc(F)cc21 ) is 144 °C

# melting point (compound: Cc1ccc(Cc2cnc(NCCCCc3ncc([N+](=O)[O-])cc3C)[nH]c2=O)cn1 ) is 141 to 142 °C

# melting point (compound: O=S1(=O)NCN(C2CC2)c2c(F)cc(F)cc21 ) is 149 to 151 °C

# melting point (compound: CCOC(=O)CCCn1nc(-c2c(-c3ccccc3)nn3ccccc23)ccc1=O ) is 71 to 75 °C

# melting point (compound: O=S1(=O)NCN(C2CCCCCCC2)c2cc(Cl)ccc21 ) is 141 to 143 °C

* * *

readout-label: melting point

# melting point (compound: CCOCCOC(=O)C1=C(C)N(COCC)C(C)=C(C(=O)OCCOCC)C1c1cccc([N+](=O)[O-])c1 ) is 63 to 63.5 °C

# melting point (compound: COc1cc2c(cc1OC)C(CSc1nnnn1C)NCC2 (stereo not given) ) is 96 to 99 °C

# melting point (compound: CCCCN1CCC(CNC(=O)c2ccc(N)n3cc(C(C)C)nc23)CC1 ) is 138 °C

# melting point (compound: N=c1[nH]c(=O)c2nc[nH]c2c(=O)[nH]1 ) is > 220 °C

# melting point (compound: CCOC(=O)C1(N)N=C(c2ccccc2Cl)c2cc(CC)sc2-n2c(C)nnc21 (stereo not given) ) is 180 to 181 °C

# melting point (compound: CN(CCCO)CC1(SSC2(CN(C)CCCO)CCCCC2)CCCCC1 ) is 65 to 66 °C

# melting point (compound: N#Cc1nn(-c2c(Cl)cc(C(F)(F)F)cc2Cl)c(NCc2cnccn2)c1S(=O)C(F)(F)F (stereo not given) ) is 169 °C

# melting point (compound: COC(=O)c1cccc(-c2ccoc2C(F)F)c1 ) is 55 to 56 °C

# melting point (compound: Cc1cc(C(C)(C)C)c(C)c(O)c1-c1c(C)cc(C(C)(C)C)c(C)c1O ) is 103 to 105 °C

# melting point (compound: CC(CN1CC(=O)N(CN2CCOCC2)C(=O)C1)N1CC(=O)NC(=O)C1 (stereo not given) ) is 162 to 165 °C

# melting point (compound: Cn1cc(C(N)=O)c(Cl)n1 ) is 164 to 166 °C

# melting point (compound: CC1(C)CCC(C)(C)c2cc(NC(=O)c3ccccc3)ccc21 ) is 146 to 148 °C

# melting point (compound: CCOC(=O)C1(c2ccccc2)CCN(C(C)=O)C(=O)C1 (stereo not given) ) is 45 to 46 °C

# melting point (compound: COc1cccc(C(=O)Nc2ccc(N3CCN(Cc4cccc(C#N)c4)CC3)cc2)c1-c1ccc(C(C)C)cc1 ) is 179 °C

# melting point (compound: CC/C(=C(\c1ccc(/C=C/C(=O)O)cc1)c1ccc(OC(=O)c2cccs2)cc1)c1ccccc1 ) is 175 to 176 °C

# melting point (compound: CCn1nc(Cl)c2ccn(-c3ccc(C)cc3C)c2c1=O ) is 94 to 95 °C

# melting point (compound: Brc1cccc(C2Cc3cnc(Nc4ccc(CCNc5ccccc5)cc4)nc3-c3ccccc32)c1 (stereo not given) ) is 92 to 94 °C

# melting point (compound: CC1(C)Cc2cccc(OCCNCc3cccc(C4=C(F)CCC4)c3)c2O1 ) is 145 °C

# melting point (compound: COc1ccc(S(=O)(=O)Nc2ccccc2NC(=O)c2cc(C)nc(Cl)c2)cc1 ) is 150 to 151 °C

# melting point (compound: Cc1ccc(CC2CCN(CCOc3ccc4c(c3)=NC(=S)N=4)CC2)cc1 ) is 271 to 273 °C

* * *

Provide the recorded melting point for the entries that follow.
Record the value in °C, omitting the unit from your answer.

# melting point (molecule: CCC(CC(O)C(CC1CCCCC1)NC(=O)C(Cc1c[nH]cn1)NC(=O)C(Cc1ccccc1)C(=O)NO)C(C)C (stereo not given) ) is 123

# melting point (molecule: CCCCCCCCc1nc2c(N)nc3ccccc3c2n1CCOCCCc1ccccc1 ) is 104

* * *

Provide the recorded melting point for the entries that follow.

# melting point (molecule: Cc1sc(-c2ccccc2)nc1COc1cc(COc2ncccc2CC(=O)O)on1 ) is 109 to 110 °C

# melting point (molecule: [N-]=[N+]=NC[C@H]1CN(c2ccc(Br)cn2)C(=O)O1 ) is 64 to 67 °C

# melting point (molecule: O=C1SCNc2sccc21 ) is 153 to 155 °C

# melting point (molecule: Cc1ccc(-c2ccc3c(c2)C=C(CN2CCC(NC(=O)C(F)(F)F)CC2)CCO3)cc1 ) is 94 to 96 °C

# melting point (molecule: CC(=O)c1cc(-c2cccc(Cl)c2)ccc1N ) is 89 to 90 °C

# melting point (molecule: CCOC(=O)C(=Cc1cccn2cc(-c3ccccc3)nc12)N=[N+]=[N-] ) is 136 to 138 °C

* * *

Provide the recorded melting point for the entries that follow.

# melting point (compound: COCCNC(=O)c1ccc(CN2C(=O)C3(COc4cc5c(cc43)CCO5)c3ccccc32)cc1 (stereo unspecified) ) is 182 to 183 °C

# melting point (compound: COC(=O)c1cc(NC(C)=O)c([N+](=O)[O-])cc1C(=O)OC ) is 119 to 120 °C

# melting point (compound: Cc1c(Nc2ccc([N+](=O)[O-])cc2C(=O)O)cccc1C(F)(F)F ) is 244 to 245 °C

# melting point (compound: CCCN(c1ccncc1)n1cc(C(C)=O)c2ccccc21 ) is 81 to 86 °C

# melting point (compound: COc1ccc(C2(C)C(=O)Nc3cc(Cl)cc(Cl)c3C2=O)cc1[N+](=O)[O-] (stereo unspecified) ) is 255 to 256 °C

# melting point (compound: O=C(O)COc1cscc1Cl ) is 123 °C

# melting point (compound: CCOC(=O)COc1cccc(C(N)=O)c1 ) is 158 to 159 °C

# melting point (compound: O=C(O)C(CCc1ccc(Cl)cc1)(Cn1cncn1)c1ccccc1 (stereo unspecified) ) is 188 to 190 °C

# melting point (compound: CCCCc1c[nH]c2c(Br)cccc2c1=O ) is 172 °C

# melting point (compound: Cc1ccccc1C1CC(=O)c2c(C)ccnc2C1 (stereo unspecified) ) is 104 to 106 °C

# melting point (compound: c1ccc2c(c1)Cc1ccccc1N1CCNCC21 (stereo unspecified) ) is 128 to 130 °C
